target: Solute carrier family 2, facilitated glucose transporter member 1 (Homo sapiens); experiment: ST_JUDE_LEISH: Cytotoxicity at 2uM final concentration against transgenic Leishmania Mexicana promastigotes LmGLUT1 that are glucose transport deficient and complemented with the human glucose transporter GLUT1. Activity is measured by DNA content using SYBR green in vitro; type: functional
value type: inhibition (%)
Number only, in %; omit the unit.

# annotated cases, reported inhibition shown
{"columns": ["compound", "target desc", "obs value"],
 "data": [
  ["CCc1ccc(C2CCN(CCCCNC(=O)c3ccc(NC(=O)c4ccc(Cl)cc4)cc3)CC2)c(OC(C)=O)c1", "Solute carrier family 2, facilitated glucose transporter member 1 (Homo sapiens)", 3.29],
  ["COc1ccc(NC(=O)CCNc2cc(C)nc(Nc3ccccc3)n2)cc1", "Solute carrier family 2, facilitated glucose transporter member 1 (Homo sapiens)", 5.84],
  ["Cc1cc(N/N=C/c2ccccc2[N+](=O)[O-])c2ccccc2n1", "Solute carrier family 2, facilitated glucose transporter member 1 (Homo sapiens)", 3.96],
  ["O=C(/C=C/c1ccc(Cl)cc1)NCCCCCN1CCCC(C(=O)Nc2ccc(F)c(Cl)c2)C1 (centres undefined)", "Solute carrier family 2, facilitated glucose transporter member 1 (Homo sapiens)", 2.06],
  ["COc1cc(NC(=O)c2sc(-c3ccc(Cl)cc3)cc2NC(=O)c2ccncc2)ccc1OCCN1CCCC1", "Solute carrier family 2, facilitated glucose transporter member 1 (Homo sapiens)", 7.57],
  ["CN(c1ccc2c(c1)nc(NC(=O)C1(c3cc(F)ccc3F)CC1)n2C)c1ccnc(Nc2cccc(CS(C)(=O)=O)c2)n1", "Solute carrier family 2, facilitated glucose transporter member 1 (Homo sapiens)", -0.91],
  ["Cc1ccccc1C(=O)Nc1cccc(-c2nc3ncccn3c2C)c1", "Solute carrier family 2, facilitated glucose transporter member 1 (Homo sapiens)", 3.33],
  ["O=C(/C=C/c1c[nH]c2ccccc12)NCCCCCN1CCC(c2c[nH]c3ccccc23)CC1", "Solute carrier family 2, facilitated glucose transporter member 1 (Homo sapiens)", 3]
]}

GET /value?item= "CCc1c[nH]c2c(N3CCCC3=O)cc(C(=O)N[C@@H](Cc3ccccc3)[C@H](O)CNC(C)(C)c3cccc(C(F)(F)F)c3)cc12" &field=inhibition returns -1.29

* * *

biological target: Hexose transporter 1 (Plasmodium falciparum) (UniProt O97467); assay: ST_JUDE_LEISH: Cytotoxicity at 2uM final concentration against transgenic Leishmania Mexicana promastigotes LmPfHT that are glucose transport deficient and complemented with the Plasmodium falciparum hexose transporter. Activity is measured by DNA content using SYBR green in vitro; format: functional
value type: inhibition (%)
Give the value, in units of %, as a plain number.

{"columns": ["compound", "inhibition / %"],
 "data": [
  ["COc1ccc2ncc(F)c(CCN3CC(O)C(CNCc4ccc5ccccc5c4)C3)c2n1 (centres undefined)", 16.6]
]}

For "Cc1cccc2[nH]cc(C3CCN(CCC4CCN(C(=O)/C=C/c5ccc(Cl)c(Cl)c5)CC4)CC3)c12" the compound record lists inhibition as -2.11

inhibition reported for this compound "Cn1ccc2c3c(N)nc(N)nc3ccc21" : 1.8

Memo: Cc1cccc(NC(=O)c2ccc(C(=O)NC3CCN(CC4CCCCC4)C3)cc2)c1 (centres undefined) , reported inhibition: 3.98

The compound listed as "O=C(NCC1CCN(CCN2CCc3ccc4c(c3C2)OCO4)CC1)c1ccc(-c2ccc(C(F)(F)F)cc2)cc1" has a reported inhibition of 4.3
